assayDetails: in vitro
protocolConditions: human, microsomes
observedProperty: half-life at 3 μM

{"compound": "O=C(O)Cc1ccccc1Nc1c(Cl)cccc1Cl", "half-life at 3 μM": "105 min"}
{"compound": "Clc1ccc2nc(-c3ccc(-c4ccccc4)cc3)cnc2c1", "half-life at 3 μM": "> 145 min"}
{"compound": "Clc1ccc2c(c1)OCC(c1ccc(-c3ccccc3)cc1)=N2 [CA39, reference compound]", "half-life at 3 μM": "37.9 min"}
{"compound": "CC(=O)Nc1ccc(-c2cnc3cc(Cl)ccc3n2)cc1", "half-life at 3 μM": "20.6 min"}

query: Can you look up the measured half-life at 3 μM of CC(=O)Nc1ccc(C2=Nc3ccc(Cl)cc3OC2)cc1 [CA77, reference compound] for me?
result: 34 min
